- measurementTarget: cloned human h-NK1 receptors expressed in CHO cells (Homo sapiens)
- Construct: expressed in transfected cells; host or cells: CHO cells
- Sequence (P25103 whole entry): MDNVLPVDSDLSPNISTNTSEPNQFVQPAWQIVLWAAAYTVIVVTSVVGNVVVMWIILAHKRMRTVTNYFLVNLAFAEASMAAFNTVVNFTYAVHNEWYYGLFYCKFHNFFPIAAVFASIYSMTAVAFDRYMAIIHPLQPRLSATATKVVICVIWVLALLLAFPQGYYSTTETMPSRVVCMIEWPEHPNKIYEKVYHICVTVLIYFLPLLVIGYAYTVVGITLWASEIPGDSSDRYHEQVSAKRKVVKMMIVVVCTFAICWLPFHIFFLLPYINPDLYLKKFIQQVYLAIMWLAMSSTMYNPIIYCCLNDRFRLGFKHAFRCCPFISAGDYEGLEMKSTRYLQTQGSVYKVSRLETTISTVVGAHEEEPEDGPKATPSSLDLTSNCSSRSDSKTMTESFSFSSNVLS
- testName: Binding experiment for h-NK1 receptors ([3H]-Substance P displacement)
- measurementConditions: read-out: h-NK1 pIC50 (converted)
assayEndpoint: IC50
A complete answer gives the number followed by the unit.

*Q* Form field: reported IC50 of O=C(c1ccccc1)N1CCC(N2CCN(C3CCN(C(=O)c4cc(C(F)(F)F)cc(C(F)(F)F)c4)C(Cc4ccccc4)C3)CC2)CC1 (stereo not shown) [Compound 3]
*A* 1.26 nM

*Q* // lookup IC50 for O=C(/C=C/c1cccnc1)N1CCC(N2CCN([C@H]3CCN(C(=O)c4cc(C(F)(F)F)cc(C(F)(F)F)c4)[C@H](Cc4ccccc4)C3)CC2)CC1 [Compound 110]
*A* 0.1 nM

*Q* Entry O=C(c1cc(F)cc(F)c1)N1CCC(N2CCN([C@H]3CCN(C(=O)c4cc(C(F)(F)F)cc(C(F)(F)F)c4)[C@H](Cc4ccccc4)C3)CC2)CC1 [Compound 51] has what IC50?
*A* 1.26 nM

*Q* Fill blank: measured IC50 of the molecule Cc1nnsc1C(=O)N1CCC(N2CCN([C@H]3CCN(C(=O)c4cc(C(F)(F)F)cc(C(F)(F)F)c4)[C@@H](Cc4ccccc4)C3)CC2)CC1 [Compound 140] is ____.
*A* 3.16 nM

*Q* Entry under review: O=C(c1cccc(C(=O)N2CCC(N3CCN([C@H]4CCN(C(=O)c5cc(C(F)(F)F)cc(C(F)(F)F)c5)[C@H](Cc5ccccc5)C4)CC3)CC2)c1)N1CCCC1 [Compound 45] . Reported IC50?
*A* 0.316 nM

*Q* // returns reported IC50 for input O=C(c1cncc(N2CCCC2)c1)N1CCC(N2CCN(C3CCN(C(=O)c4cc(C(F)(F)F)cc(C(F)(F)F)c4)C(Cc4ccccc4)C3)CC2)CC1 (stereo not shown) [Compound 85]
*A* 3.16 nM

*Q* Look at this molecule and give its reported IC50. Cc1cc(C)cc(C(=O)N2CCC(N3CCN(C4CCN(C(=O)c5cc(C(F)(F)F)cc(C(F)(F)F)c5)C(Cc5ccccc5)C4)CC3)CC2Cc2ccccc2)c1 (single isomer, unassigned) [Compound 11]
*A* 39.8 nM

*Q* Fill blank: measured IC50 of the molecule O=C(c1cccnc1)N1CCC(N2CCN([C@H]3CCN(C(=O)c4cc(C(F)(F)F)cc(C(F)(F)F)c4)[C@H](Cc4ccccc4)C3)CC2)CC1 [Compound 80] is ____.
*A* 0.501 nM

*Q* Entry Cc1nnsc1C(=O)N1CCC(N2CCN([C@H]3CCN(C(=O)c4cc(C(F)(F)F)cc(C(F)(F)F)c4)[C@H](Cc4ccccc4)C3)CC2)CC1 [Compound 143] : reported IC50 = ?
*A* 1 nM

*Q* IC50 lookup needed for Cc1nnsc1C(=O)N1CCC(N2CCN([C@@H]3CCN(C(=O)c4cc(C(F)(F)F)cc(C(F)(F)F)c4)[C@H](Cc4ccccc4)C3)CC2)CC1 [Compound 139] , thanks.
*A* 1.58 nM

*Q* If you can, please state the reported IC50 value of O=C(c1cccc(Cl)c1)N1CCC(N2CCN([C@H]3CCN(C(=O)c4cc(C(F)(F)F)cc(C(F)(F)F)c4)[C@H](Cc4ccccc4)C3)CC2)CC1 [Compound 32] .
*A* 1.58 nM

*Q* So what's the measured IC50 for this one? Cc1nnsc1C(=O)N1CCC(N2CCN([C@H]3CCN(C(=O)c4cc(C(F)(F)F)cc(C(F)(F)F)c4)[C@H](Cc4ccccc4)C3)CC2)CC1 [Compound 77]
*A* 1 nM

*Q* Quick one: IC50 for N#Cc1cccc(C(=O)N2CCC(N3CCN([C@H]4CCN(C(=O)c5cc(C(F)(F)F)cc(C(F)(F)F)c5)[C@H](Cc5ccccc5)C4)CC3)CC2)c1 [Compound 39] ?
*A* 0.794 nM

Attribution: patent US20060128721A1
